test system: NCI-H460; test: relative viability (nuclei count vs DMSO), 5 days (fraction); higher = more cells survive; details: first compound 0.1581 µM
# relative viability annotations

Compound: CC1(C)CCC(c2ccc(Cl)cc2)=C(CN2CCN(c3ccc(C(=O)NS(=O)(=O)c4ccc(N[C@H](CCN5CCOCC5)CSc5ccccc5)c(S(=O)(=O)C(F)(F)F)c4)cc3)CC2)C1 [Navitoclax] + NC(=O)Nc1cc(-c2cccc(F)c2)sc1C(=O)N[C@H]1CCCNC1 [AZD7762] (partner 0.2 µM)
Measured on: NCI-H460
relative viability: 0.573

Compound: CC1(C)CCC(c2ccc(Cl)cc2)=C(CN2CCN(c3ccc(C(=O)NS(=O)(=O)c4ccc(N[C@H](CCN5CCOCC5)CSc5ccccc5)c(S(=O)(=O)C(F)(F)F)c4)cc3)CC2)C1 [Navitoclax] + O=C(c1cc(Cc2n[nH]c(=O)c3ccccc23)ccc1F)N1CCN(C(=O)C2CC2)CC1 [Olaparib] (partner 8 µM)
Measured on: NCI-H460
relative viability: 0.388

Compound: CC1(C)CCC(c2ccc(Cl)cc2)=C(CN2CCN(c3ccc(C(=O)NS(=O)(=O)c4ccc(N[C@H](CCN5CCOCC5)CSc5ccccc5)c(S(=O)(=O)C(F)(F)F)c4)cc3)CC2)C1 [Navitoclax] + Nc1ncn([C@H]2C[C@H](O)[C@@H](CO)O2)c(=O)n1 [Decitabine] (partner 2 µM)
Measured on: NCI-H460
relative viability: 0.411

Compound: CC1(C)CCC(c2ccc(Cl)cc2)=C(CN2CCN(c3ccc(C(=O)NS(=O)(=O)c4ccc(N[C@H](CCN5CCOCC5)CSc5ccccc5)c(S(=O)(=O)C(F)(F)F)c4)cc3)CC2)C1 [Navitoclax] + Cc1nc(NC(=O)N2CCC[C@H]2C(N)=O)sc1-c1ccnc(C(C)(C)C(F)(F)F)c1 [Alpelisib] (partner 2 µM)
Measured on: NCI-H460
relative viability: 0.511

Compound: CC1(C)CCC(c2ccc(Cl)cc2)=C(CN2CCN(c3ccc(C(=O)NS(=O)(=O)c4ccc(N[C@H](CCN5CCOCC5)CSc5ccccc5)c(S(=O)(=O)C(F)(F)F)c4)cc3)CC2)C1 [Navitoclax] + N=C(N)NC(=N)NCCc1ccccc1 [Phenformin] (partner 250 µM)
Measured on: NCI-H460
relative viability: 0.522

###

system: A-427; assay: relative viability (nuclei count vs DMSO), 5 days (fraction); higher = more cells survive; details: first compound 0.01 µM
Quantity measured: relative viability

Compound: NC(=O)Nc1cc(-c2cccc(F)c2)sc1C(=O)N[C@H]1CCCNC1 [AZD7762] + CCNC(=O)c1noc(-c2cc(C(C)C)c(O)cc2O)c1-c1ccc(CN2CCOCC2)cc1 [Luminespib] (partner 0.01 µM)
Measured on: A-427
Reported: 1.23

Compound: NC(=O)Nc1cc(-c2cccc(F)c2)sc1C(=O)N[C@H]1CCCNC1 [AZD7762] + Cc1cc(Nc2cc(N3CCN(C)CC3)nc(Sc3ccc(NC(=O)C4CC4)cc3)n2)n[nH]1 [Tozasertib] (partner 0.1 µM)
Measured on: A-427
Reported: 0.215

Compound: NC(=O)Nc1cc(-c2cccc(F)c2)sc1C(=O)N[C@H]1CCCNC1 [AZD7762] + CS(=O)(=O)N1CCN(Cc2cc3nc(-c4cccc5[nH]ncc45)nc(N4CCOCC4)c3s2)CC1 [Pictilisib] (partner 1 µM)
Measured on: A-427
Reported: 0.654

Compound: NC(=O)Nc1cc(-c2cccc(F)c2)sc1C(=O)N[C@H]1CCCNC1 [AZD7762] + Cc1nc(Nc2ncc(C(=O)Nc3c(C)cccc3Cl)s2)cc(N2CCN(CCO)CC2)n1 [Dasatinib] (partner 0.075 µM)
Measured on: A-427
Reported: 0.83

Compound: NC(=O)Nc1cc(-c2cccc(F)c2)sc1C(=O)N[C@H]1CCCNC1 [AZD7762] + COc1cccc2cc(-c3nc([C@H]4CC[C@H](C(=O)O)CC4)n4ncnc(N)c34)[nH]c12 [OSI-027] (partner 0.5 µM)
Measured on: A-427
Reported: 0.484

Compound: NC(=O)Nc1cc(-c2cccc(F)c2)sc1C(=O)N[C@H]1CCCNC1 [AZD7762] + CS(=O)(=O)CCNCc1ccc(-c2ccc3ncnc(Nc4ccc(OCc5cccc(F)c5)c(Cl)c4)c3c2)o1 [Lapatinib] (partner 2 µM)
Measured on: A-427
Reported: 1.09
